B1: Subtilisin-chymotrypsin inhibitor-2A, P01053 (parent)
chain: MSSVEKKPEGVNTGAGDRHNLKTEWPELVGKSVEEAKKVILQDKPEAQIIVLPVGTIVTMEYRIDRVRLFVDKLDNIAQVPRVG

# Variants of: B1
# runConditions: Hordeum vulgare; pH 6.25; 25 °C; GdnHCl; Fluorescence; MES 50 mM; reversible: yes; structure 2CI2; whole UniProt chain shown
Reported denaturant midpoint (higher = more stable) values for a set of variants
Field format: number, assumed M, no unit text.

Take a look at these entries with their results.
INSERT INTO assay_data (variantdescription, quantityunit, assayresult) VALUES
  ('L52A', 'M', 2.78),
  ('L52A V58A F70L', 'M', 2.21),
  ('E35D', 'M', 3.62),
  ('E46A', 'M', 3.83),
  ('K38A', 'M', 4.11);

QUERY: What value of denaturant midpoint (higher = more stable) has been reported for the following variant? S32G E34A E35A
RESULT: 3.16

QUERY: What value of denaturant midpoint (higher = more stable) has been reported for the following variant? L52V V58A
RESULT: 3.05

QUERY: What value of denaturant midpoint (higher = more stable) has been reported for the following variant? `E35Q`
RESULT: 3.76

QUERY: What value of denaturant midpoint (higher = more stable) has been reported for the following variant? `P53A`
RESULT: 3.91

QUERY: What value of denaturant midpoint (higher = more stable) has been reported for the following variant? `F70L`
RESULT: 2.91

QUERY: What value of denaturant midpoint (higher = more stable) has been reported for the following variant? E34A E35A
RESULT: 3.61

QUERY: What value of denaturant midpoint (higher = more stable) has been reported for the following variant? `K38G`
RESULT: 3.49

QUERY: What value of denaturant midpoint (higher = more stable) has been reported for the following variant? `E35N`
RESULT: 3.45
